- MEASUREMENT NOTES: chemical genetic growth profiling, strain panel (AID 1159580);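 further: tested at 20 µM; growth read once vehicle control cultures reached saturation at 30 °C; 1 = growth at the plate median or of vehicle wells; lower values mean less growth of the strain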
- TEST PARAMETERS: S. cerevisiae deletion strains, growth OD, locus YCR088W, strain abp1, hits give low values
In all, about 5,500 compounds went through this assay and about 2,000 (36%) were called active. About 18% were inconclusive and are not listed. The list shows a part of the results.
READOUT TYPE: normalized growth
Lab note: record the figure alone, no unit after it.

Input line: Please report the recorded normalized growth for CO/N=C1/CN(c2nc3c(cc2F)c(=O)c(C(=O)O)cn3C2CC2)CC1CN (stereo not drawn) .
Output line: 1.02

Input line: Please answer likewise for CCC(C)C(=O)O[C@@H]1C[C@@]2(C)[C@H](c3ccoc3)OC(=O)CC23OC2(C)OC34[C@H](OC(=O)C(C)C)[C@@]3(O)[C@@H](OC(=O)C5(C)OC5C)[C@@]5(C)C[C@]3(O)[C@@](C)([C@H]5CC(=O)OC)C14O2 (stereo partly drawn)
Output line: 0.999

Input line: Cool, now COC(=O)C[C@H]1C2(C)CC34OC5(C)O[C@@]6([C@H](OC)C(OC(=O)C(C)C)[C@]7(C)C(/C(=C(/OC)C(C)C)C(=O)O[C@H]7c7ccoc7)[C@@]6(O5)[C@H](OC)[C@@]3(OC)C2OC(C)=O)[C@]14C (stereo partly drawn)
Output line: 0.989

Input line: Likewise for "Cc1ncc(CNC(=O)N(CCCl)N=O)c(N)n1" ?
Output line: 1.01

Input line: "O=C1C(Cl)=C(Cl)C(=O)C(Cl)=C1Cl" , same question.
Output line: 0.949

Input line: Try CCn1cc(C(=O)O)c(=O)c2cc(F)c(N3CCNC(C)C3)c(F)c21 (stereo not drawn) next.
Output line: 0.964

Input line: Moving on to the next compound: "CCn1cc(C(=O)O)c(=O)c2cc(F)c(N3CCNCC3)nc21"
Output line: 0.982

Input line: Moving on to CC1COc2c(N3CCN(C)CC3)c(F)cc3c(=O)c(C(=O)O)cn1c23 (stereo not drawn)
Output line: 0.986

----------
- MEASUREMENT NOTES: chemical genetic growth profiling, strain panel (AID 1159580);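 further: tested at 20 µM; growth read once vehicle control cultures reached saturation at 30 °C; 1 = growth at the plate median or of vehicle wells; lower values mean less growth of the strain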
- TEST PARAMETERS: S. cerevisiae deletion strains, growth OD, locus YDR363W, strain ESC2, hits give low values
Hit rate of the full screen: of about 5,500 compounds, about 2,000 (36%) were called active. Inconclusive results (about 18%) are left out. This is one part of the list.
Assign normalized growth to each entry below.
// return just the number, without any unit appended

Input line: Which normalized growth value belongs to CN1C2CCC1CC(OC(=O)c1cc(Cl)cc(Cl)c1)C2 (stereo not given) ?
Output line: 0.99

Input line: Then what about the compound "Cc1ccc(S(=O)(=O)NC(=O)NN2CCCCCC2)cc1" ?
Output line: 1.01

Input line: Likewise for C[C@H](Cc1ccccc1)Nc1ncnc2c1ncn2[C@@H]1O[C@H](CO)[C@H](O)C1O (stereo not given in full) ?
Output line: 0.989

Input line: # repeat for "O=C(/C=C/c1ccc(O)c(O)c1)OCCc1ccccc1"
Output line: 0.98

Input line: Please give the result for C=CC1(C)CC(=O)C2(O)C(C)(O1)C(OC(C)=O)C(O)C1C(C)(C)CCC(O)C12C (stereo not given) too.
Output line: 0.969

Input line: Moving on to the next compound: CNC(=O)[C@H]1O[C@@H](n2cnc3c(NCc4cccc(I)c4)ncnc32)C(O)[C@H]1O (stereo not given in full)
Output line: 1.01

Input line: Next compound up: O=C1CCC(N2C(=O)c3ccccc3C2=O)C(=O)N1 (stereo not given)
Output line: 1

Input line: # iterate: "C#CCN(C)Cc1ccccc1"
Output line: 0.949

Input line: CC1CC2C3CCC4=CC(=O)C=CC4(C)C3(F)C(O)CC2(C)C1(O)C(=O)CO (stereo not given) ?
Output line: 0.955

Input line: And then CN1C2CCC1CC(OC(c1ccccc1)c1ccccc1)C2 (stereo not given) , what is it?
Output line: 1

Input line: Query COC(=O)C1C(O)CCC2CN3CCc4c([nH]c5ccccc45)C3CC21 (stereo not given) next
Output line: 1

Input line: Try the compound "N=C(N)SCCc1cnc[nH]1"
Output line: 1.01

Input line: Do the same for OCc1cc(C(O)CNCCCCCCOCCCCc2ccccc2)ccc1O (stereo not given) please
Output line: 0.995

Input line: Another compound to look at: COc1cc(C(O)CO)ccc1O (stereo not given)
Output line: 0.995

Input line: Try the compound "NCCS(=O)(=O)O"
Output line: 1

Input line: Repeat with Nc1ncnc2c1ncn2C1OC2COP(O)(=S)O[C@@H]2[C@@H]1O (stereo not given in full)
Output line: 0.99

Input line: Now try "CCCCCCN(CCCCCC)C(=O)Cc1c(-c2ccc(F)cc2)[nH]c2ccccc12" .
Output line: 1.01

Input line: What do you have for c1ccc2c(c1)CCCC2C1=NCCN1 (stereo not given) ?
Output line: 1.02

Input line: One more compound: "O=C(O)/C=C/C(=O)O"
Output line: 1.01

Input line: Consider next the compound "COc1cc(CC(=O)O)ccc1O" in the same way.
Output line: 0.982

Input line: How about this compound: CC12NC(Cc3ccccc31)c1ccccc12 (stereo not given)
Output line: 1.04

Input line: Please answer likewise for CN1C2CCC1CC(OC(=O)c1c[nH]c3ccccc13)C2 (stereo not given)
Output line: 1.01

Input line: What do you have for "CCCCNC(=O)NS(=O)(=O)c1ccc(C)cc1" ?
Output line: 1.01

Input line: Also CN1C2CCC1CC(OC(c1ccccc1)c1ccc(Cl)cc1)C2 (stereo not given) , if possible.
Output line: 0.958

Input line: Try this compound next: "CC(C)(Sc1ccc(CCN(CCCCC2CCCCC2)C(=O)NC2CCCCC2)cc1)C(=O)O"
Output line: 1.01

Input line: Okay, and "CC(C)NC[C@H](O)COc1cccc2[nH]ccc12" ?
Output line: 0.994

Input line: Next compound: "CN(C)CCN(Cc1cccs1)c1ccccn1"
Output line: 0.986

Input line: Same thing, different compound: "O=C(O)[C@@H]1CCN1"
Output line: 0.998

Input line: Similarly, CCn1cc(C(=O)O)c(=O)c2cc(F)c(N3CCNC(C)C3)c(F)c21 (stereo not given) ?
Output line: 1.01

Input line: Another compound to look at: "COc1ccc(CN(CCN(C)C)c2ccccn2)cc1"
Output line: 1

Input line: And what about the compound O=C1C2C=CC=CC2=NC(=S)N1CCN1CCC(=C(c2ccc(F)cc2)c2ccc(F)cc2)CC1 (stereo not given) ?
Output line: 0.951

Input line: Same thing, different compound: "C[N+](C)(C)CCC(=O)c1cccc2ccccc12"
Output line: 0.962

Input line: // next record CN1C2CCC1CC(OC(c1ccccc1)c1ccccc1N)C2 (stereo not given)
Output line: 0.962

Input line: Same question for COc1ccc(C2CNC(=O)C2)cc1OC1CCCC1 (stereo not given) please.
Output line: 1.01

Input line: Next entry: "Nc1nc(OCc2ccccc2)c2[nH]cnc2n1"
Output line: 1.02

----------
- MEASUREMENT NOTES: chemical genetic growth profiling, strain panel (AID 1159580);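 further: tested at 20 µM; growth read once vehicle control cultures reached saturation at 30 °C; 1 = growth at the plate median or of vehicle wells; lower values mean less growth of the strain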
- TEST PARAMETERS: S. cerevisiae deletion strains, growth OD, locus YNL067W, strain RPL9B
In all, about 5,500 compounds went through this assay and about 2,000 (36%) were called active. About 18% were inconclusive and are not listed. Rule as the data show it: active = normalized growth mostly below about 0.91 (no sharp cut-off); inconclusive = no clear call, values can overlap the other calls; inactive = mostly above about 0.92. This is one part of the list.
Give one outcome, nothing more. List: active, inactive

Input line: How was "C[n+]1c2cc(N)ccc2cc2ccc(N)cc21" classified in this test?
Output line: active

Input line: Continue with "NC(=O)c1ccc[n+]([C@@H]2O[C@H](COP(=O)([O-])OP(=O)(O)OC[C@H]3O[C@@H](n4cnc5c(N)ncnc54)[C@H](OP(=O)(O)O)[C@@H]3O)[C@@H](O)[C@H]2O)c1"
Output line: inactive

Input line: Would you kindly repeat that for COc1cc([C@@H]2c3cc4c(cc3C(OC3O[C@@H]5COC(C)O[C@H]5[C@H](O)[C@H]3O)C3COC(=O)[C@@H]32)OCO4)cc(OC)c1O (stereo partly drawn) ?
Output line: inactive

----------
- MEASUREMENT NOTES: chemical genetic growth profiling, strain panel (AID 1159580);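 further: tested at 20 µM; growth read once vehicle control cultures reached saturation at 30 °C; 1 = growth at the plate median or of vehicle wells; lower values mean less growth of the strain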
- TEST PARAMETERS: S. cerevisiae deletion strains, growth OD, locus YDR150W, strain NUM1
Out of some 5,500 compounds screened, about 2,000 (36%) were called active. About 18% were inconclusive and are not listed. Rule as the data show it: active = normalized growth mostly below about 0.91 (no sharp cut-off); inconclusive = no clear call, values can overlap the other calls; inactive = mostly above about 0.92. Some of the results follow.
Answer with one of the outcomes given here: y for active, n for inactive

Input line: Returns: the outcome recorded for NC(CCCCCP(=O)(O)O)C(=O)O (stereo unspecified) in this assay.
Output line: n

Input line: Thanks! And COc1ccc2c(c1)OC1(O)COc3cc(OC)c(OC)cc3C1=C2 (stereo unspecified) ?
Output line: n

Input line: Note, next up: "COc1ccc(-c2coc3cc(OC)ccc3c2=O)cc1"
Output line: n

Input line: Next compound: "Fc1ccc(C(OCCN2CCN(CCCc3ccccc3)CC2)c2ccc(F)cc2)cc1"
Output line: y

Input line: Next: "COc1ccc2c(c1)OC/C(=C\c1ccc(OC)c(O)c1)C2=O"
Output line: y

Input line: And the next one, Cc1ccccc1C(OCCN(C)C)c1ccccc1 (stereo unspecified) ?
Output line: n
